Cited source for all entries: patent US9938265B2

Target: cellular GLS activity (Homo sapiens (Human), UniProt O94925)
Sequence (O94925 73-669): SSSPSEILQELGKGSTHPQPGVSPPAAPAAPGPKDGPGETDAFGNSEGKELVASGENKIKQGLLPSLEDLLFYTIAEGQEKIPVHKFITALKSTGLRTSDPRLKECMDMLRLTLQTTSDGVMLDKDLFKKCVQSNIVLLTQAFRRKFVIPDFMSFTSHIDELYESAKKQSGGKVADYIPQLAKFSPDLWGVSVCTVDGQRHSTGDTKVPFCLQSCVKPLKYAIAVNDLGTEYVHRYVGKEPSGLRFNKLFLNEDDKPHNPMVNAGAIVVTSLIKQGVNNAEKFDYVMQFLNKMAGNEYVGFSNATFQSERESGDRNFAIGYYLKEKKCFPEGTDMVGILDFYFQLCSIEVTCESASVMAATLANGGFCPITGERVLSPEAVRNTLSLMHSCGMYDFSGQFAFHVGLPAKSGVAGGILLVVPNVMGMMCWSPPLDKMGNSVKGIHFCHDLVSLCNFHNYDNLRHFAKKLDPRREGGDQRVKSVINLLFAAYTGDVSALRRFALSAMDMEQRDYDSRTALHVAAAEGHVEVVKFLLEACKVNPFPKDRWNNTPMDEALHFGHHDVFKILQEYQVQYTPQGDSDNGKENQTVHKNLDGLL
Test: GLS Cell Potency Assay (PC3 coupled assay measuring cellular glutamate depletion)
Conditions: PC3 cells, 6 h incubation, glutamate depletion; read-out: Assay b) GLS cell MOA Mean IC50
Recorded Metric: pIC50
Note on pIC50: it is the negative log10 of concentration, concentration in mol/L.

Worked cases, pIC50 given:
CCOC(C(=O)Nc1nnc(N[C@@H]2CCN(c3ccc(C)nn3)C2)s1)c1ccc(OC)cc1 (single isomer, unassigned) [Example 16]: 8.56
CCOC(C(=O)Nc1nnc(N[C@@H]2CCN(c3ccc(F)nn3)C2)s1)c1ccc(F)cc1 (single isomer, unassigned) [Example 26]: 8.67
CO[C@H](C(=O)Nc1nnc(N[C@@H]2CCN(c3ccc(C)nn3)C2)s1)c1cccc(OC(F)(F)F)c1 (single isomer, unassigned) [Example 7(a)]: 9.25
COc1ccc(C(OC)C(=O)Nc2nnc(N[C@@H]3CCN(c4ccc(F)nn4)C3)s2)cc1 (single isomer, unassigned) [Example 21]: 7.27
CO[C@H](C(=O)Nc1nnc(N[C@@H]2CCN(c3cc(Cl)cnn3)C2)s1)c1ccccc1: 9.35
COc1cc(C(OC)C(=O)Nc2nnc(N[C@@H]3CCN(c4ccc(F)nn4)C3)s2)ccc1F (single isomer, unassigned) [Example 23]: 6.71
CCOC(C(=O)Nc1nnc(N[C@@H]2CCN(c3ccc(C)nn3)C2)s1)c1ccc(F)cc1 (single isomer, unassigned) [Example 27]: 7.14
CO[C@H](C(=O)Nc1nnc(N[C@@H]2CCN(c3ccc(C)nn3)C2)s1)c1ccc(F)cc1 (single isomer, unassigned): 8.56
CCOC(C(=O)Nc1nnc(N[C@@H]2CCN(c3ccc(C)nn3)C2)s1)c1ccc(F)cc1 (single isomer, unassigned) [Example 28]: 8.45
COc1ccc([C@H](OC)C(=O)Nc2nnc(N[C@@H]3CCN(c4cc(C)cnn4)C3)s2)cc1 (single isomer, unassigned) [Example 33(a)]: 7.72

Prompt line: Looking for the measured pIC50 of CCO[C@H](C(=O)Nc1nnc(N[C@@H]2CCN(c3ccc(C)nn3)C2)s1)c1cccc(OC)c1 (single isomer, unassigned) [4(b)] , can you help?
Response line: 7.37

Prompt line: Continue with CO[C@H](C(=O)Nc1nnc(N[C@@H]2CCN(c3ccc(F)nn3)C2)s1)c1ccccc1
Response line: 9.02

---

Molecular target: UniProt:O94925
Experiment: GLS Enzyme Potency Assay (Glutamate Oxidase/AmplexRed coupled assay)
Assay type: biochemical
Conditions: 6His tagged GLS protein (amino acids 63-669), glutamine substrate; read-out: Assay a) enz IC50
Recorded Metric: pIC50
Reminder that pIC50 means the negative base-10 logarithm of the concentration expressed in mol/L.

COc1ccc([C@H](OC)C(=O)Nc2nnc(N[C@@H]3CCN(c4cc(Cl)cnn4)C3)s2)cc1 (single isomer, unassigned) [Example 11(a)]: 7.80
CO[C@H](C(=O)Nc1nnc(N[C@@H]2CCN(c3cc(Cl)cnn3)C2)s1)c1ccccc1 [Example 12]: 7.45
COc1ccc([C@H](OC)C(=O)Nc2nnc(N[C@@H]3CCN(c4cc(C)cnn4)C3)s2)cc1 (single isomer, unassigned) [33(b)]: 7.10
CO[C@H](C(=O)Nc1nnc(N[C@@H]2CCN(c3cc(C)cnn3)C2)s1)c1ccccc1 [Example 13]: 7.23
CCOC(C(=O)Nc1nnc(N[C@@H]2CCN(c3ccc(C)nn3)C2)s1)c1ccc(F)cc1 (single isomer, unassigned) [Example 27]: 5.62
COC(C(=O)Nc1nnc(N[C@@H]2CCN(c3ccc(F)nn3)C2)s1)c1cccc(OC(F)(F)F)c1 (single isomer, unassigned) [Example 17]: 7.61
CCOC(C(=O)Nc1nnc(N[C@@H]2CCN(c3ccc(C)nn3)C2)s1)c1ccc(F)cc1 (single isomer, unassigned) [Example 28]: 7.02
CCOC(C(=O)Nc1nnc(N[C@@H]2CCN(c3ccc(F)nn3)C2)s1)c1ccc(F)cc1 (single isomer, unassigned) [Example 26]: 7.02
COC(C(=O)Nc1nnc(N[C@@H]2CCN(c3ccc(F)nn3)C2)s1)c1ccc(F)cc1 (single isomer, unassigned) [Example 19]: 7.25
CO[C@H](C(=O)Nc1nnc(N[C@@H]2CCN(c3ccc(C)nn3)C2)s1)c1cccc(OC(F)F)c1 (single isomer, unassigned) [8(a)]: 7.00

Prompt line: Look up pIC50: CCOC(C(=O)Nc1nnc(N[C@@H]2CCN(c3ccc(C)nn3)C2)s1)c1ccc(OC)cc1 (single isomer, unassigned) [Example 16]
Response line: 7.09

Prompt line: What do you get for CO[C@H](C(=O)Nc1nnc(N[C@@H]2CCN(c3ccc(C)nn3)C2)s1)c1ccccc1 [Example 14] ?
Response line: 7.35

Prompt line: Proceed to CO[C@H](C(=O)Nc1nnc(N[C@@H]2CCN(c3ccc(F)nn3)C2)s1)c1ccccc1 [Example 2]
Response line: 7.52

---

// reported IC50 per item
Target: cellular GLS activity (Homo sapiens (Human))
Experiment: GLS Cell Potency Assay (PC3 coupled assay measuring cellular glutamate depletion)
Conditions: PC3 cells, 6 h incubation, glutamate depletion; read-out: Assay b) GLS cell MOA Mean IC50
Just the number please, in nM, no unit attached.

Previously resolved entries follow.
CCOC(C(=O)Nc1nnc(N[C@@H]2CCN(c3ccc(C)nn3)C2)s1)c1ccc(OC)cc1 (single isomer, unassigned) [Example 15]: 34.8
COC(C(=O)Nc1nnc(N[C@@H]2CCN(c3ccc(F)nn3)C2)s1)c1ccc(F)cc1 (single isomer, unassigned) [Example 20]: 79.5

Alright, here's another compound for you.
Prompt line: Could you share which IC50 value was measured for COC(C(=O)Nc1nnc(N[C@@H]2CCN(c3ccc(F)nn3)C2)s1)c1cccc(OC(F)(F)F)c1 (single isomer, unassigned) [Example 17] ?
Response line: 0.251
